# system-tested: T1, Scribble PDZ1 (human, aa 719-829) (human, UniProt Q14160 719-829)
# T1 construct: Scribble, human, PDZ1, aa 719-829 in pETM-11; The His tag was cleaved only for the NMR samples; nothing is said of cleavage for MST and ITC; also called Scribble PDZ1 wild type; source: E. coli BL21 Gold (DE3), purified (Ni2+ Sepharose)
# T1 sequence (Q14160 719-829): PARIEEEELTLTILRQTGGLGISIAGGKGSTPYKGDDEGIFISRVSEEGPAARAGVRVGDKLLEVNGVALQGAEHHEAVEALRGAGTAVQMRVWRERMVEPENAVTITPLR
# experimental-protocol: ITC; iTC200, 25°C, 20 mM HEPES pH 7.4; protein 50-100 µM in the cell, 0.64-3 mM peptide in the syringe; single-site fit, stoichiometry fixed to 0.8-1.1; triplicate
# run-conditions: both partners purified
pKd: −log10 of the molar value. Square brackets hold non-standard residues; d marks the D form. Ends that are not written are not given here. pS = N[C@@H](COP(=O)(O)O)C(=O)O
reported-endpoint: pKd

{"binder": "RPHTNET[pS]L (C-terminal nine residues of MCC (colorectal mutant cancer protein), human; also called pMCC; source: synthetic peptide, bought: GeneCust) [MCC peptide RPHTNETpSL (p-1 phosphorylated)]", "reported-endpoint": "pKd", "observed-result": 5.59}
{"binder": "RPHTNETSL (C-terminal nine residues of MCC (colorectal mutant cancer protein), human; source: synthetic peptide, bought: GeneCust) [MCC peptide RPHTNETSL (unphosphorylated)]", "reported-endpoint": "pKd", "observed-result": 5.36}

I. MKRLT[pS]TRL (C-terminal nine residues of RPS6KA2, human; also called pRPS6KA2; phospho-RPS6KA2; source: synthetic peptide, bought: GeneCust) [RPS6KA2 peptide MKRLTpSTRL (p-3 phosphorylated)]
II. MKRLTSTRL (C-terminal nine residues of RPS6KA2, human; source: synthetic peptide, bought: GeneCust) [RPS6KA2 peptide MKRLTSTRL (unphosphorylated)]
Pick one, I or II : lowest reported pKd. Kindly give the label for the entry you pick.
II
(II: 4.74, I: 5.40)
